# Test system: K562 CRISPRi cells
# TEST PROTOCOL: Constant region variant library pooled growth screen, K562
# Type: cell-based, human
# TEST SETTINGS: sgRNA constant region variants; relative to the original, un-modified constant region cr995; CRISPRi

MOLECULE | Mean relative activity
cr318 (nucleic acid, listed as DNA, chemistry not fully specified) guide: GTTTAAGAGCTAAGCTGGAAACAGCATAGCAAGTTTAAATATGGCTAGTCCGTTATCAACTTGATAAAGTGGCACCGAGTCGGTGCT | 0.4269
cr165 (nucleic acid, listed as DNA, chemistry not fully specified) guide: GTTTAAGAGCTAAGCTGGAAACAGCATAGCAAGTTTAAATAAAGCTAGTCTGTTATCAACTCGAAAGAGTGTCACCGAGTCGGTGAT | 0.4224
cr573 (nucleic acid, listed as DNA, chemistry not fully specified) guide: GTTTAAGAGCTAAGCTGGAAACAGCATAGCTAGTTTAAATAAGGCTAGTCCGATATCAACTTGAAAAAGTCGCACCGAGTCGGTGCT | 0.3297
cr014 (nucleic acid, listed as DNA, chemistry not fully specified) guide: GTTTCAGAGCTAAGCTGGAAACAGCATAGCAAGTTTAAATAAGGCTAGTCCGTTATCAACTTGAAAAAGTGGCACCGAGTCGGTGCT | 0.3395
cr545 (nucleic acid, listed as DNA, chemistry not fully specified) guide: GTTTAAGAGCTAAGCTGGAAACAGCATAACAAGTTTAAATAAGGCTAGTCCGTCATAAACTTGAAAAAGTGGCACCGAGTCGGTGCT | 0.3936
cr404 (nucleic acid, listed as DNA, chemistry not fully specified) guide: GTTTAAGAGCTAAGCTGGAAACAGCATAGCAAGTTTAAATAAGGCTAGTCCGTTATCCACTTGATAAAGTGGCACCGAGTCGGTGCT | 0.3784
cr071 (nucleic acid, listed as DNA, chemistry not fully specified) guide: GTTTACGGGCTAAGCTGGAAACAGCATAGCAAGTTTAAATAAGGCTAGTCCGTTATCAACTTGAAAAAGTGGCACCGAGTCGGTGCT | 0.475
